I'd be grateful if you could share measured half-life for these entries.
- PROCEDURE TEXT: In vivo pharmacokinetic study in rats
- SETTINGS: male, SD, rat, plasma, po, 10 mg/kg
Entry rule: numbers only, all in h.

Would you kindly share the measured half-life for O=C1CCC(N2Cc3cc(CNC(=O)C4=Cc5cc(OC(F)(F)F)ccc5OC4)ccc3C2=O)C(=O)N1 (stereo not drawn) ?
3.03

And then O=C1CCC(N2Cc3c(ccc(CNC(=O)C4=Cc5cc(OC(F)(F)F)ccc5OC4)c3F)C2=O)C(=O)N1 (stereo not drawn) , what is it?
1.71

# repeat for O=C1CCC(N2Cc3cc(CNC(=O)C4=Cc5ccccc5OC4)ccc3C2=O)C(=O)N1 (stereo not drawn)
2.69
